# Test system: ICS
# ASSAY: qHTS profiling for inhibitors of Plasmodium falciparum proliferation (AID 504749); also: nearly all actives have a fitted effect of over 60% in size; also: potency is read from the fitted curve at half-maximal effect
# RECORDED_CONDITIONS: P. falciparum in erythrocytes, SYBR Green DNA, 72 h; series mostly up to 28.7 µM
Inconclusive results are not listed. Active and inactive are the calls of the source. Calls follow the shape of the dose curve; as a rule, active = well fitted inhibition curve with a large enough effect; inconclusive = small, poorly fitted or top-dose-only effect; inactive = flat fitted curve, though single readings scatter.
PROPERTY_LABEL: Potency

Below: 4 compounds and their reported Potency.
NC(CS)C(=O)O (stereo not given)    2 µM (active)
CCN(CC)C(=O)N1CCN(C)CC1    inactive
NC(=O)C(=O)N/N=C/c1ccc([N+](=O)[O-])o1    inactive
Cc1cc(N)c2cc(NC(=O)Nc3ccc4nc(C)cc(N)c4c3)ccc2n1    5.01 µM (active)

Shift focus to the following entry.
Task item: Query Potency on ICS for CC(=O)OCC(=O)NCCCOc1cccc(CN2CCCCC2)c1
Reply: inactive

###

# ASSAY: qHTS of pediatric cancer cell lines to identify multiple opportunities for drug repurposing: Primary screen for SK-N-MC cells (AID 1347093)
# RECORDED_CONDITIONS: SK-N-MC viability, CellTiter-Glo luminescence, 48 h; series mostly up to 46 µM
# Experimental: Drug repurposing or repositioning has been offered as a strategy for drug development in oncology programs. […] [1] Shen, M et al. Quantitative high-throughput phenotypic screening of pediatric cancer cell lines identifies multiple opportunities for drug repurposing. […] Cells were assayed in growth media at a density of 500-1,000 cells/well. […] After a 15 min incubation at room temperature, samples were analyzed for luminescence intensity using a ViewLux High-throughput CCD imager equipped with clear filters.
Records with an inconclusive call do not appear. Calls of active or inactive are those of the source. The call rests on the fitted dose curve; in most records, active means well fitted cell-killing curve with a large enough effect; inconclusive means small, poorly fitted or top-dose-only effect; inactive means no such curve, though single readings can be large or run the other way.
Respond only with the outcome that fits, drawn from active, inactive

Task item: Hi, sorry to bother you, what did the test record for CCCC(=O)Nc1ccc(OCC(O)CNC(C)C)c(C(C)=O)c1 (stereo not given) ?
Reply: inactive

Task item: Hi, sorry to bother you, what did the test record for Cc1ccccc1C(=O)Nc1ccc(C(=O)N2CCCC(N(C)C)c3ccccc32)cc1 (stereo not given) ?
Reply: active

Task item: Hi, sorry to bother you, what did the test record for CC(=O)OCC(=O)[C@@]1(O)CC[C@H]2[C@@H]3CCC4=CC(=O)C=C[C@]4(C)[C@H]3[C@@H](O)C[C@@]21C ?
Reply: inactive

Task item: Hi, sorry to bother you, what did the test record for COc1cc(/C=C/C(=O)O[C@H]2CC[C@]34C[C@]35CC[C@]3(C)[C@@H]([C@H](C)CCC=C(C)C)CC[C@@]3(C)[C@@H]5CC[C@H]4C2(C)C)ccc1O ?
Reply: inactive

Task item: Hi, sorry to bother you, what did the test record for Cc1c(C(C)C)c(=O)n(-c2ccccc2)n1C ?
Reply: inactive

###

# ASSAY: qHTS of pediatric cancer cell lines to identify multiple opportunities for drug repurposing: Primary screen for SK-N-MC cells (AID 1347093)
# RECORDED_CONDITIONS: SK-N-MC viability, CellTiter-Glo luminescence, 48 h; series mostly up to 46 µM
Results filed as inconclusive are left out. Calls of active or inactive are those of the source. Calls come from the whole dose curve; as a rule, active = well fitted cell-killing curve with a large enough effect; inconclusive = small, poorly fitted or top-dose-only effect; inactive = no such curve, though single readings can be large or run the other way.
Respond only with the outcome that fits, drawn from active, inactive

Task item: Hi, sorry to bother you, what did the test record for Cc1cc(N)c2cc(NC(=O)Nc3ccc4nc(C)cc(N)c4c3)ccc2n1 ?
Reply: inactive

Task item: Hi, sorry to bother you, what did the test record for O=C(O)CNC(=O)c1ccccc1 ?
Reply: inactive

Task item: Hi, sorry to bother you, what did the test record for C[C@H](CCC(=O)O)[C@H]1CC[C@H]2[C@@H]3C(=O)C[C@@H]4CC(=O)CC[C@]4(C)[C@H]3CC(=O)[C@]12C ?
Reply: inactive

Task item: Hi, sorry to bother you, what did the test record for CC(=O)[C@H]1CC[C@H]2[C@@H]3C[C@H](C)C4=CC(=O)CC[C@]4(C)[C@H]3[C@@H](O)C[C@]12C ?
Reply: inactive

Task item: Hi, sorry to bother you, what did the test record for CC(=O)O[C@]1(C(C)=O)CC[C@H]2[C@@H]3C[C@H](C)C4=CC(=O)CC[C@]4(C)[C@H]3CC[C@@]21C ?
Reply: active

Task item: Hi, sorry to bother you, what did the test record for CCCC(=O)O[C@]1(C(=O)CO)CC[C@H]2[C@@H]3CCC4=CC(=O)CC[C@]4(C)[C@H]3[C@@H](O)C[C@@]21C ?
Reply: inactive

Task item: Hi, sorry to bother you, what did the test record for C/C=C/c1ccc(OC)cc1 ?
Reply: inactive

Task item: Hi, sorry to bother you, what did the test record for CCCN1CCCC[C@H]1C(=O)Nc1c(C)cccc1C ?
Reply: inactive

Task item: Hi, sorry to bother you, what did the test record for CC(C)(C)CC(C)(C)c1ccc(OCCOCC[N+](C)(C)Cc2ccccc2)cc1 ?
Reply: active

Task item: Hi, sorry to bother you, what did the test record for NCCCC[C@H](N[C@@H](CCc1ccccc1)C(=O)O)C(=O)N1CCC[C@H]1C(=O)O ?
Reply: inactive

Task item: Hi, sorry to bother you, what did the test record for CO/N=C1\CN(c2nc3c(cc2F)c(=O)c(C(=O)O)cn3C2CC2)CC1CN (stereo unspecified) ?
Reply: inactive

###

# SUBJECT_OF_TEST: Cytochrome P450 2D6 (Homo sapiens) (UniProt P10635)
# Sequence (P10635 whole entry, looked up): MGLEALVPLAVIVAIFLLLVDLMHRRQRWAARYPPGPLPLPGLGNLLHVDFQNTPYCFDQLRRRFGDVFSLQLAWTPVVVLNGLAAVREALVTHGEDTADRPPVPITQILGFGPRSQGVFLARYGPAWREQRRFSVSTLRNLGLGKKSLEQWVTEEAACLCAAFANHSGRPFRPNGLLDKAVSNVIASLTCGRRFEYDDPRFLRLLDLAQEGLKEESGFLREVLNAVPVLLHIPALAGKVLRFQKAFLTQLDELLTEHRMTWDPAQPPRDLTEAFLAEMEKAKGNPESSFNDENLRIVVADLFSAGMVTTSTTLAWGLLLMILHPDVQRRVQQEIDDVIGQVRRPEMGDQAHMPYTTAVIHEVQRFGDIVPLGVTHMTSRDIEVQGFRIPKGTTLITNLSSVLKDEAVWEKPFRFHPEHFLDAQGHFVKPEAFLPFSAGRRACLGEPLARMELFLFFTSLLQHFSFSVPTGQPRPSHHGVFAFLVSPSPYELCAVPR
# ASSAY: Cytochrome P450 family 2 subfamily D member 6 (CYP2D6) small molecule antagonists: luciferase biochemical (cell-free) qHTS assay (AID 1645840); also: nearly all actives have a fitted effect of over 55% in size
# RECORDED_CONDITIONS: P450-Glo CYP2D6 enzyme, luciferin luminescence, 1 h; series mostly up to 57.4 µM
Inconclusive results are not listed. The source made the active and inactive calls. Calls follow the shape of the dose curve; as a rule, active = well fitted inhibition curve with a large enough effect in the repeat runs; inconclusive = weak or mixed curves; inactive = flat fitted curve, though single readings scatter.
Respond only with the outcome that fits, drawn from true = active, false = inactive

Task item: Hi, sorry to bother you, what did the test record for C=C(CC)C(=O)c1ccc(OCC(=O)O)c(Cl)c1Cl ?
Reply: false

Task item: Hi, sorry to bother you, what did the test record for O=S1(=O)c2cccc3cccc(c23)N1CCCN1CCN(c2ccc(F)cc2)CC1 ?
Reply: true

Task item: Hi, sorry to bother you, what did the test record for O=c1[nH]c(=O)n([C@H]2CCCO2)cc1F ?
Reply: false

###

# ASSAY: qHTS assay for environmental chemicals that activate the Aryl hydrocarbon Receptor (AhR) signaling pathway (AID 651777); also: % of control where 0% means no effect; nearly all actives have a fitted effect of over 15% in size
# RECORDED_CONDITIONS: 1A2-DRE human hepatoma cells, luciferase, 24 h; hits give high values
Records with an inconclusive call do not appear.
PROPERTY_LABEL: activation (%)
Give the value in % but do not write % after it.

Task item: Suppose we examine the molecule CN(C)C(=S)SC(=S)N(C)C ; what activation value has been reported?
Reply: -0.314

Task item: Suppose we examine the molecule COC1=CC(=O)C[C@@H](C)[C@]12Oc1c(Cl)c(OC)cc(OC)c1C2=O ; what activation value has been reported?
Reply: 0.113

Task item: Suppose we examine the molecule Oc1ccc(Cl)cc1Sc1cc(Cl)ccc1O ; what activation value has been reported?
Reply: 6.02

Task item: Suppose we examine the molecule Cc1cc(=O)n(-c2ccccc2)n1C ; what activation value has been reported?
Reply: -0.814

Task item: Suppose we examine the molecule COc1cccc2c1C(=O)c1c(O)c3c(c(O)c1C2=O)C[C@@](O)(C(=O)CO)C[C@@H]3O[C@H]1C[C@H](N)[C@H](O)[C@H](C)O1 ; what activation value has been reported?
Reply: 1.88

Task item: Suppose we examine the molecule CC(O)(P(=O)(O)O)P(=O)(O)O ; what activation value has been reported?
Reply: 0.149

###

# Test system: MKL-1
# ASSAY: qHTS assay to identify novel small-molecules to repurpose for Merkel cell carcinoma treatment (AID 1296009); also: nearly all actives have a fitted effect of over 60% in size
# RECORDED_CONDITIONS: MCC and control cell lines, CellTiter-Glo viability, 72 h; series mostly up to 46 µM
Records with an inconclusive call do not appear. Active and inactive are the calls of the source. Calls follow the shape of the dose curve; as a rule, active = well fitted inhibition curve with a large enough effect; inconclusive = small, poorly fitted or top-dose-only effect; inactive = flat fitted curve, though single readings scatter.
PROPERTY_LABEL: outcome

C[C@]12CCC(=O)C=C1CC[C@H]1[C@@H]3CC[C@](O)(C(=O)CO)[C@@]3(C)C[C@H](O)[C@@]12F    inactive
CCOC(=O)OC(C)OC1=C(C(=O)Nc2ccccn2)N(C)S(=O)(=O)c2ccccc21 (configuration not stated)    inactive
O=C(O)CNC(=O)c1ccccc1    inactive
CC(=O)Oc1ccc(C(c2ccc(OC(C)=O)cc2)c2ccccn2)cc1    inactive
COC(=O)C1=C(C)NC(C)=C(C(=O)O[C@@H]2CCCN(Cc3ccccc3)C2)[C@@H]1c1cccc([N+](=O)[O-])c1    inactive

Task item: Suppose we examine the compound CN=C(NC#N)NCCSCc1csc(N=C(N)N)n1 ; what outcome value has been reported?
Reply: inactive

###

# Tested on: WaGa
# ASSAY: qHTS assay to identify novel small-molecules to repurpose for Merkel cell carcinoma treatment (AID 1296009); also: nearly all actives have a fitted effect of over 60% in size
# RECORDED_CONDITIONS: MCC and control cell lines, CellTiter-Glo viability, 72 h; series mostly up to 46 µM
Inconclusive results are not listed. Calls of active or inactive are those of the source. Calls follow the shape of the dose curve; as a rule, active = well fitted inhibition curve with a large enough effect; inconclusive = small, poorly fitted or top-dose-only effect; inactive = flat fitted curve, though single readings scatter.
Respond only with the outcome that fits, drawn from active, inactive

Task item: Hi, sorry to bother you, what did the test record for CCN(CCCCOC(=O)c1ccc(OC)c(OC)c1)C(C)Cc1ccc(OC)cc1 (stereo unspecified) ?
Reply: inactive

Task item: Hi, sorry to bother you, what did the test record for CCCCCCc1ccc(O)cc1O ?
Reply: inactive

Task item: Hi, sorry to bother you, what did the test record for CN(C)CC/C=C1/c2ccccc2COc2ccc(CC(=O)O)cc21 ?
Reply: inactive

Task item: Hi, sorry to bother you, what did the test record for N[C@H](Cc1c[nH]c2ccccc12)C(=O)O ?
Reply: inactive

Task item: Hi, sorry to bother you, what did the test record for CCOC(=O)OC(C)OC1=C(C(=O)Nc2ccccn2)N(C)S(=O)(=O)c2ccccc21 (stereo unspecified) ?
Reply: inactive

Task item: Hi, sorry to bother you, what did the test record for CCCCN1CCCC1C(=O)Nc1c(C)cc(C)cc1C (stereo unspecified) ?
Reply: inactive

Task item: Hi, sorry to bother you, what did the test record for OC[C@H]1O[C@H](O[C@]2(CCl)O[C@H](CCl)[C@@H](O)[C@@H]2O)[C@H](O)[C@@H](O)[C@H]1Cl ?
Reply: inactive

Task item: Hi, sorry to bother you, what did the test record for Cc1cccc(C)c1NC(=O)CN1CCN(CCCC(c2ccc(F)cc2)c2ccc(F)cc2)CC1 ?
Reply: inactive

Task item: Hi, sorry to bother you, what did the test record for C[C@H](CCC(=O)O)[C@H]1CC[C@H]2[C@@H]3C(=O)C[C@@H]4CC(=O)CC[C@]4(C)[C@H]3CC(=O)[C@]12C ?
Reply: inactive

Task item: Hi, sorry to bother you, what did the test record for Cc1cc(O)c(C(C)C)cc1Cl ?
Reply: inactive

Task item: Hi, sorry to bother you, what did the test record for CN(C/C=C/c1ccccc1)Cc1cccc2ccccc12 ?
Reply: inactive

Task item: Hi, sorry to bother you, what did the test record for CC1(C)O[C@@H]2C[C@H]3[C@@H]4C[C@H](F)C5=CC(=O)C=C[C@]5(C)[C@H]4[C@@H](O)C[C@]3(C)[C@]2(C(=O)CO)O1 ?
Reply: inactive

Task item: Hi, sorry to bother you, what did the test record for COc1cc(-c2ccc(=O)[nH]n2)ccc1OC(F)F ?
Reply: inactive

Task item: Hi, sorry to bother you, what did the test record for O=C1c2ccccc2C(=O)C1c1ccccc1 ?
Reply: inactive

Task item: Hi, sorry to bother you, what did the test record for Cc1ccnc(NS(=O)(=O)c2ccc(N)cc2)n1 ?
Reply: inactive

Task item: Hi, sorry to bother you, what did the test record for OC(CCN1CCCCC1)(c1ccccc1)c1ccccc1 ?
Reply: inactive

Task item: Hi, sorry to bother you, what did the test record for COc1cc(OC)cc(OC)c1 ?
Reply: inactive

Task item: Hi, sorry to bother you, what did the test record for COc1c2occc2c(OC)c2c(=O)cc(C)oc12 ?
Reply: inactive

Task item: Hi, sorry to bother you, what did the test record for CCCCS(=O)(=O)N[C@@H](Cc1ccc(OCCCCC2CCNCC2)cc1)C(=O)O ?
Reply: inactive

Task item: Hi, sorry to bother you, what did the test record for NCCc1ccn[nH]1 ?
Reply: inactive

Task item: Hi, sorry to bother you, what did the test record for CCCCC1=NC2(CCCC2)C(=O)N1Cc1ccc(-c2ccccc2-c2nn[nH]n2)cc1 ?
Reply: inactive

Task item: Hi, sorry to bother you, what did the test record for CN=C(NC#N)Nc1ccc(C2=NNC(=O)CC2C)cc1 (stereo unspecified) ?
Reply: inactive

Task item: Hi, sorry to bother you, what did the test record for CC(=O)OCC(=O)[C@@]1(O)[C@H](C)C[C@H]2[C@@H]3CCC4=CC(=O)C=C[C@]4(C)[C@@]3(F)[C@@H](O)C[C@@]21C ?
Reply: inactive

Task item: Hi, sorry to bother you, what did the test record for COc1cc2c(cc1OC)[C@@H]1CC(=O)[C@@H](CC(C)C)CN1CC2 ?
Reply: inactive

Task item: Hi, sorry to bother you, what did the test record for CN1[C@@H]2CC[C@H]1CC(OC(=O)c1c[nH]c3ccccc13)C2 (stereo partly specified) ?
Reply: inactive

Task item: Hi, sorry to bother you, what did the test record for CCCCCCCCCCCCCCCC[N+](C)(C)CC ?
Reply: active
